Recorded pEC50 for the following molecules
biological target: IRE1a (Homo sapiens, UniProt O75460); assay: IRE1a Endoribonuclease Nanoluciferase Assay (XBP1 luciferase reporter in 293T cells); conditions: XBP1 nanoluciferase reporter in 293T cells, ER stressor; tested as the salt named
Sequence (O75460 19-977): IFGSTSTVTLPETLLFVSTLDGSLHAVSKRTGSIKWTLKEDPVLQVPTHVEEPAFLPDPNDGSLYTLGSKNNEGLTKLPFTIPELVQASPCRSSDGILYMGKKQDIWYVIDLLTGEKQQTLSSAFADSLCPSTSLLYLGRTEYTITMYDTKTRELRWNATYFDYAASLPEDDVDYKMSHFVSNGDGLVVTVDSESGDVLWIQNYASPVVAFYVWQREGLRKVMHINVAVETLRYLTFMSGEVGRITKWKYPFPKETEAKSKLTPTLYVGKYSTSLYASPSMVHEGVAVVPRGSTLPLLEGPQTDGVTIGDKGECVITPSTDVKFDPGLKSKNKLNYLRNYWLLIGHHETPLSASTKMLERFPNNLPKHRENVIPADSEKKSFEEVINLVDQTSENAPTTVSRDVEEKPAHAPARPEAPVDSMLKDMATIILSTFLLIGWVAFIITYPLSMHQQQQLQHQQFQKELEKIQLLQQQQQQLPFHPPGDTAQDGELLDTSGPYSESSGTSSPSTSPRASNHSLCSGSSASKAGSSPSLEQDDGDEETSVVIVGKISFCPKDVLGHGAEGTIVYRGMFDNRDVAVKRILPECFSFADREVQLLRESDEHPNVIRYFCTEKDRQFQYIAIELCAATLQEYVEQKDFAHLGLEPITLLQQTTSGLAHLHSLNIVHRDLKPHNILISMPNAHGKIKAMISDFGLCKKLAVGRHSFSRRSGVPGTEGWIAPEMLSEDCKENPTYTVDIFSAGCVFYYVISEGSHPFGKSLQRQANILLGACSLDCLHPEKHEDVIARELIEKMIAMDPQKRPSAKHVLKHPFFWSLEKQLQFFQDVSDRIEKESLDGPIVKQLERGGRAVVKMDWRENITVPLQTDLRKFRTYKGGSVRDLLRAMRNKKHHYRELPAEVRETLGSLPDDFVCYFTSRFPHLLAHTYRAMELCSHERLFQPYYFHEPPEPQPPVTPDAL
pEC50: −log10 of the molar value.

> print(dat)
                                   molecule       reading
1  CCc1cc(-c2ccc(NS(=O)(=O)c3ccccc3Cl)nc2C)cc2cnc(N[C@@H]3CC[C@@H](N(C)C)C[C@@H]3F)nc12 [Compound 151]        > 8.30
2  CCc1cc(-c2cnc(NS(=O)(=O)c3ccccc3Cl)nc2C)cc2cnc(N[C@H]3CC[C@H](N)CC3)nc12 [Compound 23]        > 8.30
3  N[C@H]1CCC[C@@H](Nc2ncc3cc(-c4ccc(NS(=O)(=O)c5ccccc5Cl)c(F)c4)ccc3n2)C1 [Compound 75]  5.00 to 7.00

Query molecule follows.
Enter reported pEC50 observed with IRE1a (Homo sapiens, UniProt O75460) for CCc1cc(-c2cnc(NS(=O)(=O)c3ccccc3Cl)nc2OC)cc2cnc(NC3CCC(N(C)C)CC3)nc12 (stereo not shown) [Compound 154] > 8.30

* * *

molecular target: IRE1a (Homo sapiens, UniProt O75460); test: IRE1a Endoribonuclease Nanoluciferase Assay (XBP1 luciferase reporter in 293T cells); details: XBP1 nanoluciferase reporter in 293T cells, ER stressor; tested as the salt named
endpoint: EC50

# get_value(readout='EC50', item= CCc1cc(-c2ccc(NS(=O)(=O)c3ccccc3Cl)c(F)c2)cc2cnc(N[C@@H]3CCC[C@H](N)C3)nc12 ) 0.1 to 10 µM

Moving on to the next compound: COc1nc(NS(=O)(=O)c2ccccc2Cl)ccc1-c1cc(C(C)(F)F)c2nc(N[C@H]3CC[C@H](N(C)C)CC3)ncc2c1 < 0.005 µM

Note, next up: CCc1cc(-c2ccc(NS(=O)(=O)c3ccccc3Cl)nc2OC)cc2cnc(N[C@H]3CC[C@H](N)CC3)nc12 < 0.005 µM

* * *

target: IRE1a (Homo sapiens); assay: IRE1a Endoribonuclease Nanoluciferase Assay (XBP1 luciferase reporter in 293T cells); conditions: XBP1 nanoluciferase reporter in 293T cells, ER stressor; tested as the salt named
pEC50: −log10 of the molar value.
pEC50 listing for selected compounds.

A selection of reference data follows.
> print(dat)
                                   compound       reading
1  COc1nc(NS(=O)(=O)c2ccccc2Cl)ccc1-c1cc2cnc(N[C@H]3CC[C@H](N(C)C)CC3)nc2cc1C        > 8.30
2  N[C@H]1CC[C@H](Nc2ncc3cc(-c4c(F)cc(NS(=O)(=O)c5ccccc5Cl)cc4F)ccc3n2)CC1  7.30 to 8.30
3  N[C@H]1CC[C@H](Nc2ncc3cc(-c4nnc(NS(=O)(=O)c5ccccc5Cl)s4)ccc3n2)CC1  5.00 to 7.00
4  CCc1cc(-c2ncc(NS(=O)(=O)c3ccccc3Cl)nc2OC)cc2cnc(N[C@H]3CC[C@H](N(C)C)CC3)nc12        > 8.30
5  CCc1cc(-c2cc(OC)c(NS(=O)(=O)c3ccccc3Cl)nn2)cc2cnc(N[C@H]3CC[C@H](N)CC3)nc12  7.00 to 7.30

# pEC50 lookup, item CCc1cc(-c2ccc(NS(=O)(=O)c3ccccc3Cl)c(F)c2)cc2cnc(N[C@H]3CC4C[C@H](N)CC4C3)nc12 (some centres unmarked) [Compound 83] 7.00 to 7.30

// next record COc1nc(NS(=O)(=O)c2ccccc2Cl)c(F)cc1-c1cc(C)c2nc(N[C@H]3CC[C@H](N(C)C)CC3)ncc2c1 > 8.30

Can you handle CCc1cc(-c2ccc(NS(=O)(=O)c3ccccc3Cl)c(F)c2)cc2cnc(NC34CCC(N)(CC3)CC4)nc12 next? > 8.30

Can you handle COc1nc(NS(=O)(=O)c2ccccc2Cl)ccc1-c1cc(C(F)(F)F)c2nc(N[C@H]3CC[C@H](N(C)C)CC3)ncc2c1 next? > 8.30

Next: CCc1cc(-c2ncc(NS(=O)(=O)c3ccccc3Cl)cn2)cc2cnc(N[C@H]3CC[C@H](N)CC3)nc12 > 8.30

Try this compound next: CCc1cc(-c2ccc(NS(=O)(=O)c3ccccc3C)nc2OC)cc2cnc(N[C@H]3CC[C@H](N(C)C)CC3)nc12 > 8.30

Repeat for the following compound: CCc1cc(-c2cc(NS(=O)(=O)c3ccccc3Cl)no2)cc2cnc(N[C@H]3CC[C@H](N)CC3)nc12 > 8.30

N[C@H]1CC[C@H](Nc2ncc3cc(-c4ccc(NS(=O)(=O)c5ccccc5Cl)cc4F)ccc3n2)CC1 ? 7.30 to 8.30

Then CCc1cc(-c2cc(F)c(NS(=O)(=O)c3ccccc3Cl)nc2C)cc2cnc(N[C@H]3CC[C@H](N(C)C)CC3)nc12 ? > 8.30
